test system: peripheral blood mononuclear cells (PBMC); experiment: Cellular toxicity assay (MTS) on PBMC; type: cell-based, human; details: 24 hours incubation, MTS reagent; read-out: PBMC's TC50
quantityName: CC50 (µM)
Kindly provide the numeric value in µM only, without the unit symbol.

Exercise: Query: CC50; subject: CC(=NNC(=N)N)c1cccc(NC(=O)[C@H](Cc2ccc(-c3ccccc3)cc2)NC(=O)c2cccc(I)c2)c1
Solution: 5

====

Listed molecules paired with reported IC50
target: N. gonorrhea RNase P (M1 RNA + C5 protein) (Neisseria gonorrhoeae); test: Time resolved fluorescence (TRF) RNase P inhibition assay; format: biochemical; settings: 30 min enzyme reaction, ptGLN substrate; read-out: N. gonorrhoeae TRF IC50(μM) (Example 15)
Sequence (Q5F4W3 whole entry): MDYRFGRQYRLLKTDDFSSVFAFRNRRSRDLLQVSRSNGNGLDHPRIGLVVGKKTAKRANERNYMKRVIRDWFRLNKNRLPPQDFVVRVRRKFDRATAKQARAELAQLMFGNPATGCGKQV
Kindly provide the numeric value in µM only, without the unit symbol.

Here's what some known entries look like.
> print(dat)
                                smilesentry  reportedmeasurement
1  CC(=NNC(=N)N)c1cccc(NC(=O)Nc2cccc(C(C)=NNC(=N)N)c2)c1                    6
2  N=C1/C(=C/c2ccc(-c3ccc(C(=O)O)cc3)o2)C(=O)N=C2SC(Cc3cccs3)=NN12                   15
3  CC(=NNC(=N)N)c1cccc(NC(=O)[C@H](Cc2ccc(-c3ccccc3)cc2)NC(=O)c2ccccc2)c1                    7

From here, focus on the item given below.
Exercise: Query: IC50; subject: O=C(O)c1ccc(-c2nc(-c3ccc(-c4nc(-c5ccc(C(=O)O)cc5)[nH]c4-c4ccccc4)cc3)c(-c3ccccc3)[nH]2)cc1
Solution: 10

====

Listed compounds paired with reported MIC
system: N. gonorrhoeae; assay: Bacterial inhibition assay (growth, MTS readout); assay type: cell-based; conditions: CAMHB-3% LHB medium, 35° C., 5% CO2, 24 hours
Kindly provide the numeric value in µM only, without the unit symbol.

Here's what some known entries look like.
> print(dat)
                                smilesentry  reportedmeasurement
1  N=C1/C(=C/c2ccc(-c3ccc(C(=O)O)cc3)o2)C(=O)N=C2SC(c3ccccc3)=NN12                  100
2  CC(=O)Oc1cccc2ccc(/C=C/c3ccc(C(=O)O)cc3)nc12                   10
3  O=C(O)c1ccc(-c2ccc(/C=C3\S/C(=N\c4ccccc4)N(c4ccccc4)C3=O)o2)cc1                   30
4  O=C(O)c1ccc(-c2nc(-c3ccc(-c4nc(-c5ccc(C(=O)O)cc5)[nH]c4-c4ccccc4)cc3)c(-c3ccccc3)[nH]2)cc1                   30

From here, focus on the item given below.
Exercise: Query: MIC; subject: N=C1/C(=C/c2ccc(-c3ccc(C(=O)O)cc3)o2)C(=O)N=C2SC(Cc3cccs3)=NN12
Solution: 30

====

Listed compounds paired with reported MIC
test system: S. pyogenes; experiment: Bacterial inhibition assay (growth, OD readout); format: cell-based; settings: Streptococcus pyogenes; CAMHB-3% LHB medium, 35° C., 16-20 hours
Kindly provide the numeric value in µM only, without the unit symbol.

Here's what some known entries look like.
> print(dat)
                                smilesentry  quantityname  reportedmeasurement
1  CC(=NNC(=N)N)c1cccc(NC(=O)[C@@H]2Cc3ccccc3CN2C(=O)c2cccc(C(C)=NNC(=N)N)c2)c1           MIC                   10
2  CC(=NNC(=N)N)c1ccc(NC(=O)Nc2ccc(C(C)=NNC(=N)N)cc2)cc1           MIC                   10
3  CC(=NNC(=N)N)c1ccc(C(=O)Nc2cccc(C(C)=NNC(=N)N)c2)cc1           MIC                    1
4  CC(=NNC(=N)N)c1ccc(NC(=O)c2ccc(C(C)=NNC(=N)N)cc2)cc1           MIC                  0.3
5  CC(=NNC(=N)N)c1cccc(NC(=O)Nc2cccc(C(C)=NNC(=N)N)c2)c1           MIC                   30

Exercise: Request body: readout MIC, system S. pyogenes, query CC(=NNC(=N)N)c1cccc(NC(=O)[C@@H]2CCCN2C(=O)c2cccc(C(C)=NNC(=N)N)c2)c1 . Return the value.
Solution: 30
